Details: in methanol, 293.15 K
readout.kind: solubility (mole fraction)
The reply should be a number, written without any unit.

// recorded solubility (mole fraction) for NC[C@H]1O[C@H](O[C@H]2[C@H](O)[C@@H](O[C@H]3O[C@H](CO)[C@@H](O)[C@H](N)[C@H]3O)[C@H](N)C[C@@H]2N)[C@H](N)C[C@@H]1O : 0.000133

----------
Settings: in DMSO, 298.15 K
readout.kind: solubility (mole fraction)

// recorded solubility (mole fraction) for NC[C@H]1O[C@H](O[C@H]2[C@H](O)[C@@H](O[C@H]3O[C@H](CO)[C@@H](O)[C@H](N)[C@H]3O)[C@H](N)C[C@@H]2N)[C@H](N)C[C@@H]1O : 0.014

----------
Conditions: in DMF, 308.15 K
readout.kind: solubility (mole fraction)
The reply should be a number, written without any unit.

// recorded solubility (mole fraction) for NC[C@H]1O[C@H](O[C@H]2[C@H](O)[C@@H](O[C@H]3O[C@H](CO)[C@@H](O)[C@H](N)[C@H]3O)[C@H](N)C[C@@H]2N)[C@H](N)C[C@@H]1O : 0.000394

----------
Conditions: in methanol, 288.15 K
readout.kind: solubility (mole fraction)
The reply should be a number, written without any unit.

// recorded solubility (mole fraction) for NC[C@H]1O[C@H](O[C@H]2[C@H](O)[C@@H](O[C@H]3O[C@H](CO)[C@@H](O)[C@H](N)[C@H]3O)[C@H](N)C[C@@H]2N)[C@H](N)C[C@@H]1O : 0.000129

----------
Settings: in DMSO, 303.15 K
readout.kind: solubility (mole fraction)
The reply should be a number, written without any unit.

// recorded solubility (mole fraction) for NC[C@H]1O[C@H](O[C@H]2[C@H](O)[C@@H](O[C@H]3O[C@H](CO)[C@@H](O)[C@H](N)[C@H]3O)[C@H](N)C[C@@H]2N)[C@H](N)C[C@@H]1O : 0.018

----------
Settings: in ethanol, 298.15 K
readout.kind: solubility (mole fraction)
The reply should be a number, written without any unit.

// recorded solubility (mole fraction) for NC[C@H]1O[C@H](O[C@H]2[C@H](O)[C@@H](O[C@H]3O[C@H](CO)[C@@H](O)[C@H](N)[C@H]3O)[C@H](N)C[C@@H]2N)[C@H](N)C[C@@H]1O : 0.00114

----------
Settings: in DMF, 318.15 K
readout.kind: solubility (mole fraction)

// recorded solubility (mole fraction) for NC[C@H]1O[C@H](O[C@H]2[C@H](O)[C@@H](O[C@H]3O[C@H](CO)[C@@H](O)[C@H](N)[C@H]3O)[C@H](N)C[C@@H]2N)[C@H](N)C[C@@H]1O : 0.000942

----------
Details: in DMSO, 294.15 K
readout.kind: solubility (mole fraction)
The reply should be a number, written without any unit.

// recorded solubility (mole fraction) for NC[C@H]1O[C@H](O[C@H]2[C@H](O)[C@@H](O[C@H]3O[C@H](CO)[C@@H](O)[C@H](N)[C@H]3O)[C@H](N)C[C@@H]2N)[C@H](N)C[C@@H]1O : 0.0124

----------
Details: in ethanol, 308.15 K
readout.kind: solubility (mole fraction)
The reply should be a number, written without any unit.

// recorded solubility (mole fraction) for NC[C@H]1O[C@H](O[C@H]2[C@H](O)[C@@H](O[C@H]3O[C@H](CO)[C@@H](O)[C@H](N)[C@H]3O)[C@H](N)C[C@@H]2N)[C@H](N)C[C@@H]1O : 0.00243
